- TEST METHOD NOTES: NCI Yeast Anticancer Drug Screen. Data for the bub3 strain (AID 167)
- TEST CONTEXT: S. cerevisiae bub3 mutant strain, at 100.0 µM, stronger effect = higher value
Compounds without any hit were thinned out: in the full panel of roughly 79,000, 15% have a hit.
PROPERTY: growth inhibition (%)

{"columns": ["MOLECULE", "ASSAY RESULT"],
 "data": [
  ["O=[N+]([O-])c1ccc(S(=O)(=O)Cc2ccccc2)c([N+](=O)[O-])c1", 95],
  ["Cc1cccc2c1C1c3c(C)cccc3C(CC(=O)O)CC1CC2 (stereo unspecified)", 87],
  ["COC(=O)C1CCCCC1C(=O)Nc1ccccc1 (stereo unspecified)", -11],
  ["O=S(=O)(NC1CCCC(c2ccccc2)C1)c1ccccc1 (stereo unspecified)", 87],
  ["CCO/C=C1\\SC(=S)N(c2ccc(OCC)cc2)C1=O", 58],
  ["O=C(Cc1ccccc1)NN1C(=O)C(Cl)C1c1cc(Br)cc(Br)c1O (stereo unspecified)", 87],
  ["BrC1C2CCC3OC3C12 (stereo unspecified)", 99],
  ["CC(=O)/C=C/c1cc([N+](=O)[O-])ccc1O", 98],
  ["CCCCOc1ccc2nc(C)cc(N=[N+]=[N-])c2c1", 87],
  ["CC1CCN(CCC(=O)c2ccc([N+](=O)[O-])cc2)CC1", 31],
  ["CC1(C)CC(=O)C(/C=N/c2nc(-c3ccc(Br)cc3)cs2)=C(O)C1", 98],
  ["c1ccc2nc3c(nc2c1)sc1ccccc13", 41],
  ["Cc1nc2sc3c(c2c(=O)o1)CCCC3", 28],
  ["C1=CCN([B-](c2ccccc2)[C+]2CCCCC2)C=C1", 97],
  ["O=C(c1cc(=O)c2ccc(O)cc2o1)c1ccc(Cl)cc1Cl", 94],
  ["CC(CN(C)C)C(=O)/C=C/c1ccc(Cl)c(Cl)c1 (stereo unspecified)", 97],
  ["CN1C(=O)C(CC(=O)O)NC1=S (stereo unspecified)", 43],
  ["Nc1ccc(/C=C/c2ccc3cccnc3c2)cc1", 94],
  ["Nc1ccc2cc(Br)ccc2c1Br", 6],
  ["O=C(NOC(=O)c1ccc([N+](=O)[O-])cc1)c1ccc(Cl)cc1", 95],
  ["CS(=O)(=O)O.[Ag]", 97],
  ["Nc1ccc2c(c1)C(=O)c1c(F)cccc1-2", 37],
  ["O=C(Oc1ccc([N+](=O)[O-])cc1)c1ccc([N+](=O)[O-])cc1", 15],
  ["N#CC1OB(O)c2ccccc21 (stereo unspecified)", -4],
  ["COC(=O)C1=C(C(=O)OC)CC(n2nnc(C(=O)OC)c2C(=O)OC)=CC1", -2],
  ["COc1ccccc1/C=C\\C(=O)C1COCN1 (stereo unspecified)", 99]
]}

Entry source: PubChem BioAssay (NCI)
